Provenance of the data: patent US20140302063A1

Each entry below carries its reported pKd.
- Assayed System: recombinant H5 A/Vietnam/1203/04 (H5N1) (Influenza A virus A/Vietnam/1203/04 (H5N1))
- Protocol Summary: SPR, single cycle kinetics, HA immobilised
pKd: −log10 of the molar value.
Measurement Kind: pKd

Binder | Result Value
R2b-E8 (VHH) VHH: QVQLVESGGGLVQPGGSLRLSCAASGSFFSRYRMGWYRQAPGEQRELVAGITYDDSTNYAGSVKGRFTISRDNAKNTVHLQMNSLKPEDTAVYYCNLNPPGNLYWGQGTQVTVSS | 8.44
R1a-C5 (VHH) VHH: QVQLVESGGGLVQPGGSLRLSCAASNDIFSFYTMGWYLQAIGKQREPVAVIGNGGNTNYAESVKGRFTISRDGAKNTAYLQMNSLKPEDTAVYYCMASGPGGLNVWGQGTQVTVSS | 8.57
R1a-A5 (VHH) VHH: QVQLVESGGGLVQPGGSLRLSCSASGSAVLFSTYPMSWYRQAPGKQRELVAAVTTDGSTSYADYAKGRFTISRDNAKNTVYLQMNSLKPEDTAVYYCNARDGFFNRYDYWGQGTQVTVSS | 9.15
